Origin of measurements: patent US5177075A

target: Poly(ADP-ribose) synthetase (Bos taurus); construct: Poly (ADP-ribose) synthetase from calf thymus; from tissue; host or cells: calf thymus; experiment: Inhibition of Poly(ADP-ribose) synthetase; type: biochemical, calf; conditions: 30° C., 15 minutes, [3H]NAD; read-out: IC50
pIC50: −log10 of the molar value. Structures can show the parent of a compound that is named as a salt.
outcome_measure: pIC50

Example entries begin here.
O=C1NCCc2c(OCc3ccccc3)cccc21 | 5.28
O=C1NCCc2c(OC[C@H](O)CN3CCCCC3)cccc21 | 6.48
Oc1ncc(Br)c2ccccc12 | 6.44
Cc1cccc2c1CC(C)NC2=O (stereo not shown) | 6.13
CCN(CC)CC(O)COc1cccc2c1CCNC2=O (stereo not shown) | 6.00

1: CC(=O)Oc1cccc2c1CCNC2=O
2: Cl.Nc1cccc2c1CCNC2=O [IX, monohydrochloride]
3: Nc1c[nH]c(=O)c2ccccc12 [Example XXV, monohydrochloride]
4: COc1cccc2c(=O)[nH]nc(C)c12
**Q:** Hello, I need these entries ordered by pIC50, highest reading first. Thanks! The reply should contain the labels ordered as requested.
**A:** 4, 2, 3, 1
(4: 7.10, 2: 6.39, 3: 6.18, 1: 5.68)

* * *

target: Poly(ADP-ribose) synthetase (Bos taurus); construct: Poly (ADP-ribose) synthetase from calf thymus; from tissue; host or cells: calf thymus; test: Inhibition of Poly(ADP-ribose) synthetase; format: biochemical, calf; settings: 30° C., 15 minutes, [3H]NAD; read-out: IC50
pIC50: −log10 of the molar value.
outcome_measure: pIC50

Worked set:
CSC1=NCCc2c(C)cccc21 [XIX] | 5.81
CN(C)COc1cccc2c1CCNC2=O [XIII] | 6.01
O=c1[nH]cc(Br)c2c(O)cccc12 [Example XXVI, 4-Bromo-5-hydroxy-1(2H)-isoquinolinone] | 7.21
O=C1NCCc2c(Cl)cccc21 [XVI] | 6.51

P: O=C1NCCc2c(OCC(O)CN3CCCCC3)cccc21 (stereo not drawn) [Example IV]
Q: O=C1NCCc2c(OCC(O)CN3CCCC3)cccc21 (stereo not drawn) [XXVIII]
**Q:** Endpoint returns whichever of P and Q has the numerically higher pIC50. State your choice using its label.
**A:** P
(P: 6.49, Q: 6.11)

* * *

biological target: Poly(ADP-ribose) synthetase (Bos taurus, UniProt P18493); construct: Poly (ADP-ribose) synthetase from calf thymus; from tissue; host or cells: calf thymus; assay: Inhibition of Poly(ADP-ribose) synthetase; type: biochemical, calf; settings: 30° C., 15 minutes, [3H]NAD; read-out: IC50
Sequence (P18493 whole entry): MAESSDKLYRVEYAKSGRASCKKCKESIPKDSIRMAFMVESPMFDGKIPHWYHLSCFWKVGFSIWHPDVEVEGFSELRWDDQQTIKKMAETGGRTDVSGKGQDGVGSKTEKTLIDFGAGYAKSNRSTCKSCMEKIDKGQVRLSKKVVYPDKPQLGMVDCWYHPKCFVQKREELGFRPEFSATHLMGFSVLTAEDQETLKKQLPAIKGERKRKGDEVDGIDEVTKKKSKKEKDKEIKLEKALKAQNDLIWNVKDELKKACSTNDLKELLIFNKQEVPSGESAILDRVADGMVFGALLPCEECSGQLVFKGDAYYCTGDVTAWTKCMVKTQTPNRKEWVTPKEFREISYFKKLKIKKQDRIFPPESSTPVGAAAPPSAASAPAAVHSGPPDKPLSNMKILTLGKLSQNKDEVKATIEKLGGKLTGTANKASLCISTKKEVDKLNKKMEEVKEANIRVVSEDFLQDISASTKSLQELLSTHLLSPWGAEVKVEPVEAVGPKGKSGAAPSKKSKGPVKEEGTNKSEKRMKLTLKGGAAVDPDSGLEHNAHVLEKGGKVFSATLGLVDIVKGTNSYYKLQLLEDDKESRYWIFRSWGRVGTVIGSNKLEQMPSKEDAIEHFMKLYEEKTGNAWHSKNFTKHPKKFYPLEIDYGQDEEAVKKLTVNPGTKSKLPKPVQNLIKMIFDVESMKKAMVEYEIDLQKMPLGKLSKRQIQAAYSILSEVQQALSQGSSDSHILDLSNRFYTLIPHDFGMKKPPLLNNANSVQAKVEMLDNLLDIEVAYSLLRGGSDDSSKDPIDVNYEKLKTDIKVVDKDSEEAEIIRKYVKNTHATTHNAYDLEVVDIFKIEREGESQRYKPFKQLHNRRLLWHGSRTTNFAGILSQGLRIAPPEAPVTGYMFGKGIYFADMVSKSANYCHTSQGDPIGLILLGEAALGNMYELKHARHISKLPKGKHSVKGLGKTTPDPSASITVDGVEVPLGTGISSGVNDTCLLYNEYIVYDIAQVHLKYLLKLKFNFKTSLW
outcome_measure: IC50 (nM)

COc1cccc2c(=O)[nH]ccc12 | 580

a: CNCC(O)COc1cccc2c1CCNC2=O (stereo not drawn)
b: O=C1NCCc2c(OCCCN3CCCCC3)cccc21
**Q:** Hi, I'm comparing two records. Which one has the lower IC50, a or b ? Choose, then provide that item's label.
**A:** a
(a: 200 nM, b: 830 nM)
